Listing of recorded inhibition at 25 µM by entry.
system: Mycobacterium tuberculosis; assay: MMV: Screen against Mtb, single point, non replicating, at 25uM; type: functional
Observed Property: inhibition at 25 µM (%)

1) CC1CCN(Cc2c(O)ccc3cc(-c4nc5ccccc5s4)c(=O)oc23)CC1	12
2) Oc1ccccc1CN1CCC2(CCCN(Cc3ccccc3F)C2)C1 (centres undefined)	9.59
3) CCN(CC)CCNc1ncnc2c1[nH]c1ccc(Cl)cc12	18.1
4) Oc1c2c(nc3cc(-c4ccccc4)nn13)CCCC2	10.3

---

Listing of recorded inhibition at 25 µM by entry.
tested on: Mycobacterium tuberculosis; experiment: MMV: Screen against Mtb, single point, non replicating, at 25uM; assay type: functional
Observed Property: inhibition at 25 µM (%)

1) CC(C)OCc1cc(CN2CCN(c3cccc(Cl)c3)CC2)c(O)c2ncccc12	11.7
2) Oc1ccc2ccccc2c1CNc1nc2ccccc2[nH]1	35.9
3) CC1(c2ccccc2)Nc2ccccc2-c2nc3ccccc3n21 (centres undefined)	12
4) CCOC(=O)c1c(C)n(-c2ccccc2)c2ccc(OC(=O)c3cc(OC)c(OC)c(OC)c3)cc12	6.46

---

system: Mycobacterium tuberculosis; test: MMV: Screen against Mtb, single point, non replicating, at 25uM; format: functional
Use label 1 when the recorded inhibition at 25 µM is no lower than 20%; use label 0 when it is lower.

1. COc1cccc(Nc2nc(N)c3ccccc3n2)c1	label 0
2. COc1ccc(Nc2nc(N/N=C/c3ccc(O)cc3)nc(Nc3ccc([N+](=O)[O-])cc3)n2)cc1	label 1
3. COc1ccc(-c2nonc2NC(=O)c2cccc(C)c2)cc1OC	label 0
4. CCC(c1ccccc1)c1nn2c(-c3cccs3)nnc2s1 (centres undefined)	label 1
5. O=c1nc(C=Cc2ccc(Cl)cc2)oc2ccccc12	label 0
6. CN(C)CCCNCc1ccc(-c2ccc(F)c(Cl)c2)o1	label 0
7. Cc1ccc(OCCCCCCNCCO)c(C)c1	label 0
8. O=C(Nc1ccc(N2CCCCC2)c(Cl)c1)c1ccc(Br)o1	label 0
9. CCCc1c(C)nc2ccccc2c1O	label 0
10. Cc1ccnc(NC(c2cccc(OCc3ccccc3)c2)c2ccc3cccnc3c2O)c1 (centres undefined)	label 1
11. COc1ccc2c(c1)C1(Nc3ccccc3-c3nc4ccccc4n31)C(=O)N2 (centres undefined)	label 0
12. CC(C)c1ccc(CNCC(O)c2ccccc2)cc1 (centres undefined)	label 0
13. CCOc1ccc(Nc2c3ccccc3nc3ccccc23)cc1	label 0
14. FC(F)(F)c1cccc(Nc2nc(-c3ccccc3)nc3ncccc23)c1	label 0
15. CCOC(=O)C1=C(C)N=c2sc(=Cc3cc(Cl)ccc3O)c(=O)n2C1c1ccc(OC)cc1 (centres undefined)	label 0
16. COc1ccc(C2C(C(=O)Nc3cccc(OC)c3)c3ccccc3C(=O)N2C2CCCCC2)cc1 (centres undefined)	label 1
17. Cc1cc(C)c2c(c1)OCN(Cc1ccccc1Cl)C2	label 0
18. O=C(Nc1ccc(N2CCN(Cc3ccccc3)CC2)cc1)c1cccs1	label 0

---

tested on: Mycobacterium tuberculosis; assay: MMV: Screen against Mtb, single point, non replicating, at 25uM; type: functional
Use Fulfilled when the recorded inhibition at 25 µM is no lower than 20%; use Not fulfilled when it is lower.

1. CN1CCN(c2nc(Nc3ccc(O)cc3)nc3ccccc23)CC1	Not fulfilled
2. FC(F)(F)c1ccc(Nc2nnnc3ccccc23)cc1	Fulfilled
3. COc1ccc(-c2cc3c(SCC(=O)Nc4cc(C(F)(F)F)ccc4Cl)nccn3n2)cc1	Not fulfilled
4. CCN(CC)CCNc1ccnc2cc(Cl)ccc12	Not fulfilled
5. COc1ccc(C2c3ccc4ccccc4c3Oc3ncn(CCCN(C)C)c(=N)c32)cc1 (configuration not stated)	Fulfilled
6. Cc1ccc(-c2cc3c(nn2)-c2ccccc2C3=O)cc1	Not fulfilled
7. CN(C)c1ccc(N=Cc2ccc(N3CCOCC3)cc2)cc1	Not fulfilled
8. COc1ccc(C(=O)Nc2ccc3nc(N4CCCCC4)cc(C)c3c2)cc1OC	Fulfilled
9. FC(F)(F)c1cccc(CNC2CCN(CCc3ccccc3)CC2)c1	Not fulfilled
10. Cc1cc(Nc2ccc(OCc3ccccc3)cc2)nc2cc(O)ccc12	Not fulfilled
11. COc1cccc(C(=O)NC(c2ccc(C)cc2)c2cc(Cl)c3cccnc3c2O)c1 (configuration not stated)	Not fulfilled
12. Cc1c(C)n(Cc2ccc(F)cc2)c2ccc(C(=O)NCc3ccco3)cc12	Not fulfilled
13. COc1ccc(C2c3ccc4ccccc4c3Oc3ncn(CCCn4ccnc4)c(=N)c32)cc1OC (configuration not stated)	Not fulfilled
14. OC(CNC1CCCC1)Cn1c2ccccc2c2ccccc21 (configuration not stated)	Not fulfilled
15. CCOC(=O)c1cn(CC)c2cc(N(C)CCc3ccc(OC)c(OC)c3)c(F)cc2c1=O	Not fulfilled
16. Cn1c(C(=O)c2cccc3ccccc23)nc2ccccc21	Fulfilled
17. O=C(Nc1ccsc1C(=O)NC1CCCCC1)c1ccc(F)cc1	Fulfilled
